Each recorded value in this set is attributed to PubChem BioAssay AID1006.

Listed next: entries and their corresponding inhibition.
- target desc: Luciferin 4-monooxygenase (Photinus pyralis) (UniProt P08659)
- Sequence (P08659 whole entry, looked up): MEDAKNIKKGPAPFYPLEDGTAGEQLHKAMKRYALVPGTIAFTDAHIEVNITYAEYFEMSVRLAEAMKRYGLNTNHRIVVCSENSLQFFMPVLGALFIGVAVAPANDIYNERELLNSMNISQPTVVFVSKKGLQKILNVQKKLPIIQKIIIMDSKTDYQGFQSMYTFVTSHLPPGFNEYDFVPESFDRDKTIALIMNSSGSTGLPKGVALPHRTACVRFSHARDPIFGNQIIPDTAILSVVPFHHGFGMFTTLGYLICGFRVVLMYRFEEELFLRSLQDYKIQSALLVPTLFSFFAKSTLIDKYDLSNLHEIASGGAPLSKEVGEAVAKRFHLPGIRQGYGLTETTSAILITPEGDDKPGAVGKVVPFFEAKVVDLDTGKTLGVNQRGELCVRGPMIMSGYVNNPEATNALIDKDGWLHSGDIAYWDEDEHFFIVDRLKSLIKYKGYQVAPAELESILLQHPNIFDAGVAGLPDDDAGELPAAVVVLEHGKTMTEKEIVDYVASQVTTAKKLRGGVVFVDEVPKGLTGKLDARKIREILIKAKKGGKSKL
- experiment: firefly luciferase enzyme inhibitors, primary screen, artefact control for luciferase-based inhibitor screens, biochemical, luminescence, ATPLite (AID 1006)
- measurement parameters: 10 min, at 10 µM, hits give high values
Among all 200,000 compounds or so, about 3,000 (1.5%) were called active. For the sample, actives were picked, then their nearest neighbours and some compounds at random.
Numbers only; they are read as %.

Please review the following examples before continuing.
> print(dat)
                                   compound                               target.desc  obs.value
1  CC(C)CCC(C)NC(=O)c1ccc2nccnc2c1 (configuration not stated)  Luciferin 4-monooxygenase (Photinus pyralis) (UniProt P08659)        2.8
2   COc1ccc(/C=N/Nc2nc3ccccc3c(=O)[nH]2)cc1  Luciferin 4-monooxygenase (Photinus pyralis) (UniProt P08659)       59.4
3           COc1ccc(C(=O)/C=C/Nc2ccccn2)cc1  Luciferin 4-monooxygenase (Photinus pyralis) (UniProt P08659)       92.4
4             CCc1ccc2oc(-c3ccc(N)cc3)nc2c1  Luciferin 4-monooxygenase (Photinus pyralis) (UniProt P08659)       80.7

## Task Identify the measured inhibition of O=C(Nn1cnnc1)c1ccc([N+](=O)[O-])cc1 for Luciferin 4-monooxygenase (Photinus pyralis) (UniProt P08659).
## Result -5.5

## Task Identify the measured inhibition of O=C(NC1CCCC1)c1ccc(Br)s1 for Luciferin 4-monooxygenase (Photinus pyralis) (UniProt P08659).
## Result 3.5

## Task Identify the measured inhibition of CCCCCC(=O)Nc1ccc2oc(-c3ccncc3)nc2c1 for Luciferin 4-monooxygenase (Photinus pyralis) (UniProt P08659).
## Result -5.7

## Task Identify the measured inhibition of Cc1ccc(-n2c(C)cc(/C=C(\C#N)C(=O)NCC3CCCO3)c2C)cc1 (configuration not stated) for Luciferin 4-monooxygenase (Photinus pyralis) (UniProt P08659).
## Result 72.2

## Task Identify the measured inhibition of Nc1c(NCCc2ccccc2)c2ccccc2oc1=O for Luciferin 4-monooxygenase (Photinus pyralis) (UniProt P08659).
## Result -4

## Task Identify the measured inhibition of COc1cc(COCC(O)CN2CCN(Cc3ccc4c(c3)OCO4)CC2)cc(OC)c1OC (configuration not stated) for Luciferin 4-monooxygenase (Photinus pyralis) (UniProt P08659).
## Result -5

## Task Identify the measured inhibition of CCOc1cc(NC(=O)c2ccccn2)c(OCC)cc1NC(=O)c1ccc(OC)cc1 for Luciferin 4-monooxygenase (Photinus pyralis) (UniProt P08659).
## Result -2.9

## Task Identify the measured inhibition of O=C(Nc1ccc2c(c1)CCC2)c1ccc(Br)s1 for Luciferin 4-monooxygenase (Photinus pyralis) (UniProt P08659).
## Result 57.1

---

- target desc: Luciferin 4-monooxygenase (Photinus pyralis)
- experiment: firefly luciferase enzyme inhibitors, primary screen, artefact control for luciferase-based inhibitor screens, biochemical, luminescence, ATPLite (AID 1006)
- measurement parameters: 10 min, at 10 µM
The whole screen tested about 200,000 compounds, of which about 3,000 (1.5%) were called active.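 The calls were made as follows: active = inhibition above about 50% when tested at 10 µM (limit read from the data); inactive = the rest.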 This is one part of a sample in which actives are shown more often than they occur.
Select the correct class. Options are yes = active, no = inactive and nothing else.

These recorded examples may help you get a feel for the data.
> print(dat)
                                 compound  qualitative.label
1  O=C(NCCc1ccccc1)c1ccc(OCCOc2ccccc2)cc1                 no
2          O=C(CSc1nc2ccccc2[nH]1)c1cccs1                 no

## Task Assay result, entry O=[N+]([O-])c1ccc2c(c1)C(N1CCOCC1)/C(=C/C1(O)CCCCC1)O2 (stereo unspecified) — outcome?
## Result no

## Task Assay result, entry CNC(=O)COC(=O)c1cc(-c2ccc(OC)cc2)nc2ccccc12 — outcome?
## Result yes

## Task Assay result, entry CCc1nnc(NC(=O)c2cccs2)s1 — outcome?
## Result no

## Task Assay result, entry CCc1nnc(NC(=O)c2sc3nc(C)cc(COC)c3c2N)s1 — outcome?
## Result no

---

- target desc: Luciferin 4-monooxygenase (Photinus pyralis)
- experiment: firefly luciferase enzyme inhibitors, primary screen, artefact control for luciferase-based inhibitor screens, biochemical, luminescence, ATPLite (AID 1006)
- measurement parameters: 10 min, at 10 µM, hits give high values
Hit rate of the full screen: of about 200,000 compounds, about 3,000 (1.5%) were called active. Many of the other results were omitted from the sample, so actives are more common in it than they were.
Listed next: entries and their corresponding inhibition.

Please review the following examples before continuing.
> print(dat)
                                   compound                               target.desc  experimental.readout         obs.value
1  CC(C)C1Nc2c(C(=O)O)cccc2C(Nc2ccccc2C(=O)O)C1(C)C (configuration not stated)  Luciferin 4-monooxygenase (Photinus pyralis)            inhibition   0.1% (inactive)
2  Cc1ccc(C(=O)Oc2coc(CSc3nnc(NC(=O)c4cccs4)s3)cc2=O)cc1C  Luciferin 4-monooxygenase (Photinus pyralis)            inhibition  -0.1% (inactive)
3                      OCCNc1nc2ccccc2[nH]1  Luciferin 4-monooxygenase (Photinus pyralis)            inhibition  -5.9% (inactive)
4  Cc1ccc(-c2nc3ccccc3[nH]2)cc1NC(=O)c1sc2ccccc2c1Cl  Luciferin 4-monooxygenase (Photinus pyralis)            inhibition    -3% (inactive)
5            COc1cc(SC)ccc1C(=O)Nc1nc(C)cs1  Luciferin 4-monooxygenase (Photinus pyralis)            inhibition    97.7% (active)
6                 Cc1ccnc(NC(=O)c2ccoc2C)c1  Luciferin 4-monooxygenase (Photinus pyralis)            inhibition  18.1% (inactive)

Pending compound:
## Task Which inhibition reading was recorded for the compound COc1ccccc1-n1ccnc1SCC(=O)NC(C)(C)C ?
## Result -7.3% (inactive)

---

Listed next: entries and their corresponding inhibition.
- target desc: Luciferin 4-monooxygenase (Photinus pyralis)
- experiment: firefly luciferase enzyme inhibitors, primary screen, artefact control for luciferase-based inhibitor screens, biochemical, luminescence, ATPLite (AID 1006)
- measurement parameters: 10 min, at 10 µM, hits give high values
Out of some 200,000 compounds screened, about 3,000 (1.5%) were called active. Shown is part of a subset that was picked to be rich in actives.
Numbers only; they are read as %.

Please review the following examples before continuing.
> print(dat)
                                   molecule  obs.value
1  COc1ccc(/C=N/NC(=O)c2ccccc2)cc1OS(=O)(=O)c1ccccc1       -2.1
2  Cc1ccc(C)c(NC(=S)NCC(c2cccnc2)N2CCOCC2)c1 (stereo not given)       -5.6
3  COc1ccc(N(CC(=O)NC2CCCC2)C(=O)CS(=O)CC(=O)Nc2ccc3c(c2)OCO3)cc1 (stereo not given)       -6.6

## Task Which inhibition reading was recorded for the molecule c1ccc(-c2noc(-c3cccs3)n2)nc1 ?
## Result 71.2

## Task Which inhibition reading was recorded for the molecule O=C(Oc1ccc(-c2nc(-c3ccccn3)no2)cc1)c1ccccc1 ?
## Result 65.5

## Task Which inhibition reading was recorded for the molecule CCn1c(/C=N/NC(=O)c2ccc(OC)cc2)nc2ccccc21 ?
## Result 8.7

## Task Which inhibition reading was recorded for the molecule CCS(=O)(=O)C1=NSC2=NC(=O)/C(=C\c3cc(C)n(-c4cccc(OC)c4)c3C)C(=N)N21 ?
## Result 12.2

## Task Which inhibition reading was recorded for the molecule NC(=O)Cc1ccc2sc(-c3ccccc3)nc2c1 ?
## Result 65.2

## Task Which inhibition reading was recorded for the molecule COc1cc(/C=N/NC(=O)c2ccccc2)ccc1OS(=O)(=O)c1ccccc1 ?
## Result -2.6

## Task Which inhibition reading was recorded for the molecule CC(=O)Nc1ccc(S(=O)(=O)NCC(=O)OCc2cc(=O)oc3ccc4ccccc4c23)cc1 ?
## Result -3.3

---

Listed next: entries and their corresponding inhibition.
- target desc: Luciferin 4-monooxygenase (Photinus pyralis) (UniProt P08659)
- experiment: firefly luciferase enzyme inhibitors, primary screen, artefact control for luciferase-based inhibitor screens, biochemical, luminescence, ATPLite (AID 1006)
- measurement parameters: 10 min, at 10 µM, hits give high values
Among all 200,000 compounds or so, about 3,000 (1.5%) were called active. This excerpt belongs to a sample that is enriched for actives.
Numbers only; they are read as %.

Please review the following examples before continuing.
> print(dat)
                                   molecule                               target.desc  experimental.readout  result.unit  obs.value
1                   OCCNCCOc1ccc(Cl)c(Cl)c1  Luciferin 4-monooxygenase (Photinus pyralis) (UniProt P08659)            inhibition            %        0.7
2   O=c1cc(CSc2ccc(Cl)cc2)nc(N2CCOCC2)[nH]1  Luciferin 4-monooxygenase (Photinus pyralis) (UniProt P08659)            inhibition            %       -3.7
3           COc1ccc(/C=C/C(=O)N2CCCC2)cc1OC  Luciferin 4-monooxygenase (Photinus pyralis) (UniProt P08659)            inhibition            %        5.6
4            Cc1ccc(OC(=O)c2cc3ccccc3o2)cc1  Luciferin 4-monooxygenase (Photinus pyralis) (UniProt P08659)            inhibition            %       73.3
5             O=C(Nc1ccccc1)c1ccc2c(c1)OCO2  Luciferin 4-monooxygenase (Photinus pyralis) (UniProt P08659)            inhibition            %       34.2
6  COc1ccc(-n2cc(CNC3CCOCC3)c(-c3cccc(F)c3)n2)cc1  Luciferin 4-monooxygenase (Photinus pyralis) (UniProt P08659)            inhibition            %       -2.3

Pending molecule:
## Task Which inhibition reading was recorded for the molecule COc1ccc(/C=C/C(=O)Nc2cccnc2)cc1OC ?
## Result 13
